Values compiled from ChEMBL document CHEMBL4130369.

test: Inhibition of butter milk XOD (unknown origin) at 100 uM using xanthine as substrate after 8 mins relative to control
observed_property: inhibition (%)

compound=CCCOC(=O)/C=C/c1ccc(O)c(O)c1 observed_property=inhibition modifier_sign== quantitative_result=61
compound=COc1ccc(CCOC(=O)CCc2ccccc2)cc1OC observed_property=inhibition modifier_sign=< quantitative_result=10
compound=O=C(/C=C/c1ccc(O)c(O)c1)OCCCCCO observed_property=inhibition modifier_sign== quantitative_result=84
compound=O=C(CCc1ccccc1)OCCc1ccc(O)c(O)c1 observed_property=inhibition modifier_sign=< quantitative_result=10
compound=O=C(/C=C/c1ccc(O)c(O)c1)OCCc1ccccc1 observed_property=inhibition modifier_sign== quantitative_result=62
compound=O=C(CCc1ccccc1)OCCc1ccccc1 observed_property=inhibition modifier_sign=< quantitative_result=10
compound=CCCCCNC(=O)/C=C/c1ccc(O)c(O)c1 observed_property=inhibition modifier_sign== quantitative_result=33
compound=O=C(CCc1ccc(O)c(O)c1)OCCc1ccc(O)c(O)c1 observed_property=inhibition modifier_sign== quantitative_result=21
compound=O=C(/C=C/c1ccc(O)c(O)c1)O[C@H](Cc1ccc(O)c(O)c1)C(=O)O observed_property=inhibition modifier_sign== quantitative_result=27
compound=CCCCCCCCCOC(=O)/C=C/c1ccc(O)c(O)c1 observed_property=inhibition modifier_sign== quantitative_result=40
compound="CCCCOC(=O)/C=C/c1ccc(O)c(O)c1 [BUTYL CAFFEATE]" observed_property=inhibition modifier_sign=> quantitative_result=90
compound=O=C(/C=C/c1ccccc1)OCCc1ccc(O)c(O)c1 observed_property=inhibition modifier_sign== quantitative_result=22
compound="CCCCCCOC(=O)/C=C/c1ccc(O)c(O)c1 [HEXYLCAFFEATE]" observed_property=inhibition modifier_sign=< quantitative_result=10
compound=C=CCOC(=O)/C=C/c1ccc(O)c(O)c1 observed_property=inhibition modifier_sign== quantitative_result=22
compound=CCCCCCCOC(=O)/C=C/c1ccc(O)c(O)c1 observed_property=inhibition modifier_sign== quantitative_result=25
compound=CCCCCOC(=O)/C=C/c1ccc(O)c(O)c1 observed_property=inhibition modifier_sign=> quantitative_result=90
compound="NC(=O)C(Cc1ccc(O)c(O)c1)OC(=O)/C=C/c1ccc(O)c(O)c1 (stereo not given)" observed_property=inhibition modifier_sign== quantitative_result=82
compound=O=C(/C=C/c1ccc(O)c(O)c1)NCCc1ccc(O)c(O)c1 observed_property=inhibition modifier_sign== quantitative_result=30
compound="O=C(/C=C/c1ccccc1)OCCc1ccccc1 [PHENETHYL CINNAMATE]" observed_property=inhibition modifier_sign=< quantitative_result=10
compound=COc1ccc(CCOC(=O)/C=C/c2ccc(O)c(O)c2)cc1OC observed_property=inhibition modifier_sign== quantitative_result=43
compound=O=C(/C=C/c1ccc(O)c(O)c1)OCCc1ccc(O)c(O)c1 observed_property=inhibition modifier_sign== quantitative_result=80
compound="COC(=O)/C=C/c1ccc(O)c(O)c1 [METHYLCAFFEATE]" observed_property=inhibition modifier_sign== quantitative_result=65
compound=O=C(O)/C=C/c1ccc(O)c(O)c1 observed_property=inhibition modifier_sign=< quantitative_result=10
compound=O=C(/C=C/c1ccc(O)c(O)c1)OCCCCCCO observed_property=inhibition modifier_sign== quantitative_result=51
compound=CCCCCCC(=O)/C=C/c1ccc(O)c(O)c1 observed_property=inhibition modifier_sign== quantitative_result=76

---

experiment: Inhibition of butter milk XOD (unknown origin) at 10 uM using xanthine as substrate after 8 mins relative to control
observed_property: inhibition

compound=O=C(/C=C/c1ccc(O)c(O)c1)OCCc1ccccc1 observed_property=inhibition result="< 10%"
compound="CCCCCCOC(=O)/C=C/c1ccc(O)c(O)c1 [HEXYLCAFFEATE]" observed_property=inhibition result=10%
compound=O=C(/C=C/c1ccc(O)c(O)c1)O[C@H](Cc1ccc(O)c(O)c1)C(=O)O observed_property=inhibition result="< 10%"
compound=O=C(O)/C=C/c1ccc(O)c(O)c1 observed_property=inhibition result="< 10%"
compound=O=C(/C=C/c1ccc(O)c(O)c1)OCCCCCO observed_property=inhibition result="< 10%"
compound=O=C(CCc1ccc(O)c(O)c1)OCCc1ccc(O)c(O)c1 observed_property=inhibition result="< 10%"
compound=CCCCCCC(=O)/C=C/c1ccc(O)c(O)c1 observed_property=inhibition result=12%
compound="COC(=O)/C=C/c1ccc(O)c(O)c1 [METHYLCAFFEATE]" observed_property=inhibition result="< 10%"
compound=C=CCOC(=O)/C=C/c1ccc(O)c(O)c1 observed_property=inhibition result="< 10%"
compound=CCCCCOC(=O)/C=C/c1ccc(O)c(O)c1 observed_property=inhibition result=11%
compound="NC(=O)C(Cc1ccc(O)c(O)c1)OC(=O)/C=C/c1ccc(O)c(O)c1 (stereo unspecified)" observed_property=inhibition result=38%
compound=O=C(CCc1ccccc1)OCCc1ccccc1 observed_property=inhibition result="< 10%"
compound=CCCCCCCOC(=O)/C=C/c1ccc(O)c(O)c1 observed_property=inhibition result=11%
compound=CCCCCNC(=O)/C=C/c1ccc(O)c(O)c1 observed_property=inhibition result="< 10%"
compound=COc1ccc(CCOC(=O)/C=C/c2ccc(O)c(O)c2)cc1OC observed_property=inhibition result=50%
compound=CCCOC(=O)/C=C/c1ccc(O)c(O)c1 observed_property=inhibition result="< 10%"
compound=Oc1ncnc2[nH]ncc12 observed_property=inhibition result="> 90%"
compound=O=C(CCc1ccccc1)OCCc1ccc(O)c(O)c1 observed_property=inhibition result="< 10%"
compound="O=C(/C=C/c1ccccc1)OCCc1ccccc1 [PHENETHYL CINNAMATE]" observed_property=inhibition result="< 10%"
compound=O=C(/C=C/c1ccccc1)OCCc1ccc(O)c(O)c1 observed_property=inhibition result="< 10%"
compound=O=C(/C=C/c1ccc(O)c(O)c1)OCCCCCCO observed_property=inhibition result="< 10%"
compound=CCCCCCCCCOC(=O)/C=C/c1ccc(O)c(O)c1 observed_property=inhibition result="< 10%"
compound=O=C(/C=C/c1ccc(O)c(O)c1)OCCc1ccc(O)c(O)c1 observed_property=inhibition result=26%
compound=O=C(/C=C/c1ccc(O)c(O)c1)NCCc1ccc(O)c(O)c1 observed_property=inhibition result="< 10%"
compound=COc1ccc(CCOC(=O)CCc2ccccc2)cc1OC observed_property=inhibition result="< 10%"
compound="CCCCOC(=O)/C=C/c1ccc(O)c(O)c1 [BUTYL CAFFEATE]" observed_property=inhibition result="< 10%"

---

molecular target: Amyloid-beta precursor protein (Homo sapiens); assay: Inhibition of QD-labeled amyloid beta (1 to 42) (unknown origin) aggregation after 24 hrs by inverted fluorescence microscopic method
pEC50: −log10 of the molar value.
Consider the following molecules and their measured pEC50 readings.
observed_property: pEC50

molecule=CCCCCCCCCOC(=O)/C=C/c1ccc(O)c(O)c1 target_under_test="Amyloid-beta precursor protein (Homo sapiens)" observed_property=pEC50 quantitative_result=5.02
molecule="CCCCOC(=O)/C=C/c1ccc(O)c(O)c1 [BUTYL CAFFEATE]" target_under_test="Amyloid-beta precursor protein (Homo sapiens)" observed_property=pEC50 quantitative_result=4.92
molecule=O=C(/C=C/c1ccc(O)c(O)c1)OCCCCCCO target_under_test="Amyloid-beta precursor protein (Homo sapiens)" observed_property=pEC50 quantitative_result=4.26
molecule=O=C(/C=C/c1ccc(O)c(O)c1)NCCc1ccc(O)c(O)c1 target_under_test="Amyloid-beta precursor protein (Homo sapiens)" observed_property=pEC50 quantitative_result=4.16
molecule="O=C(/C=C/c1ccccc1)OCCc1ccccc1 [PHENETHYL CINNAMATE]" target_under_test="Amyloid-beta precursor protein (Homo sapiens)" observed_property=pEC50 quantitative_result=2.98
molecule="COC(=O)/C=C/c1ccc(O)c(O)c1 [METHYLCAFFEATE]" target_under_test="Amyloid-beta precursor protein (Homo sapiens)" observed_property=pEC50 quantitative_result=4.17
molecule=CCCOC(=O)/C=C/c1ccc(O)c(O)c1 target_under_test="Amyloid-beta precursor protein (Homo sapiens)" observed_property=pEC50 quantitative_result=4.61
molecule=O=C(CCc1ccccc1)OCCc1ccc(O)c(O)c1 target_under_test="Amyloid-beta precursor protein (Homo sapiens)" observed_property=pEC50 quantitative_result=5.23
molecule=O=C(/C=C/c1ccc(O)c(O)c1)OCCc1ccccc1 target_under_test="Amyloid-beta precursor protein (Homo sapiens)" observed_property=pEC50 quantitative_result=5.08
molecule=O=C(/C=C/c1ccc(O)c(O)c1)O[C@H](Cc1ccc(O)c(O)c1)C(=O)O target_under_test="Amyloid-beta precursor protein (Homo sapiens)" observed_property=pEC50 quantitative_result=4.69
molecule=CCCCCNC(=O)/C=C/c1ccc(O)c(O)c1 target_under_test="Amyloid-beta precursor protein (Homo sapiens)" observed_property=pEC50 quantitative_result=4.94

---

target: Amyloid-beta precursor protein (Homo sapiens, UniProt P05067); assay: Inhibition of QD-labeled amyloid beta (1 to 42) (unknown origin) aggregation after 24 hrs by inverted fluorescence microscopic method
Sequence (P05067 whole entry): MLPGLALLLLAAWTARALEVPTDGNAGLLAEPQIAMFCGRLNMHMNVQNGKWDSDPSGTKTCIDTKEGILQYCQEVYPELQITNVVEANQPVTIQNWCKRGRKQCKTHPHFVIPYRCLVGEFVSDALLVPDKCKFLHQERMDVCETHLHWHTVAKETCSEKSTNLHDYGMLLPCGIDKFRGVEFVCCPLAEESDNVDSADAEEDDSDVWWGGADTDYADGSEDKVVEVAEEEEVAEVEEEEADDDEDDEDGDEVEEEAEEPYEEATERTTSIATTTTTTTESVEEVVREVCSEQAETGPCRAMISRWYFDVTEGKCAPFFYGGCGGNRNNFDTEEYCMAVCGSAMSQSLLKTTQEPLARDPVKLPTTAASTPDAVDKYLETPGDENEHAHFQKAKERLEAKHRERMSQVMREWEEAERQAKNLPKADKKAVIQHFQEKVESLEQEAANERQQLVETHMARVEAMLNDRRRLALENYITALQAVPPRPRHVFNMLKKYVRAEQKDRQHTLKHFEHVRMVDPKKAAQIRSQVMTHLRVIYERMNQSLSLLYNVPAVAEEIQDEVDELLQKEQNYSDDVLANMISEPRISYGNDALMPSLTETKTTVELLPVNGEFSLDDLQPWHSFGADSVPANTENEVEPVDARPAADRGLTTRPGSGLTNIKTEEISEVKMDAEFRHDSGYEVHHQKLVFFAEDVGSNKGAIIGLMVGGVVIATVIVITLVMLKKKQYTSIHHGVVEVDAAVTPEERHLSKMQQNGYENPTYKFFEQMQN
pEC50: −log10 of the molar value.
observed_property: pEC50

structure_notation=CCCCCCCOC(=O)/C=C/c1ccc(O)c(O)c1 quantitative_result=4.98
structure_notation=O=C(/C=C/c1ccc(O)c(O)c1)OCCc1ccc(O)c(O)c1 quantitative_result=4.69
structure_notation=O=C(/C=C/c1ccc(O)c(O)c1)OCCCCCO quantitative_result=4.10
structure_notation=COc1ccc(CCOC(=O)CCc2ccccc2)cc1OC quantitative_result=3.56
